targetUnderTest: T1, insulin (UniProt P01308 25-54; P01308 90-110, limits assumed)
T1 construct: Mature insulin has two chains (A and B) from one precursor; also called b-insulin
T1 sequence (P01308 25-54 limits assumed, form in doubt, chain 1 of 2): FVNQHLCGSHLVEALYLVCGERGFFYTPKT
T1 sequence (P01308 90-110 limits assumed, form in doubt, chain 2 of 2): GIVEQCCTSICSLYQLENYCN
experiment: SPR, Biacore T200; target immobilized on CM5, His6-tagged Y variant injected; 1:1 Langmuir
The following binders are shown together with reported Kd values.
Output spec: scalar in nM, unitless text.

Would you please look over these solved cases?
Y00032 (designed binder) MGSSHHHHHHGSSLAEAKEAAIAELDSKGVGAYQKSFIELAKSVEHVELLKEAILADLP: 63
Y00268 (designed binder, Y00032 with K22I) MGSSHHHHHHGSSLAEAKEAAIAELDSKGVGAYQISFIELAKSVEHVELLKEAILADLP: 84
Y00265 (designed binder, Y00032 with V17I) MGSSHHHHHHGSSLAEAKEAAIAELDSKGIGAYQKSFIELAKSVEHVELLKEAILADLP: 120
Y00330 (designed binder, From library Ylib002Naive.I) MGSSHHHHHHGSSLAEAKEAAIAELDSKGVGAKYIKMIQMAKHVETVQYMKQAILASLPA: 120

Shifting focus to the binder that follows.
-- ask # lookup: Kd of Y00361 (designed binder, From library Ylib002Naive.I) MGSSHHHHHHGSSLAEAKEAAIAELDSKGVGAKFIKMIQSAKLVETVQLLKQAILADLPA
-- reply 310

These measurements were taken from patent US20210047372A1.
